Listed next: entries and their corresponding LD50 at 72 h.
assay procedure: Acute toxicity (LD50) in mice
test settings: mouse, in vivo, iv; I.V.; Table 4 (toxicity; species not given); read-out: LD50 I.V.
Your answer is read as mg/kg, so omit the unit and give the number.

CC[C@H]1CNCC[C@H]1CCCc1ccnc2ccccc12    22

## Input Query: LD50 at 72 h; subject: CC(C)N(CCC(C(N)=O)(c1ccccc1)c1ccccn1)C(C)C (stereo not shown) [Disopyramide, reference compound]
## Output 26

## Input Query: LD50 at 72 h; subject: C=C[C@H]1CNCC[C@H]1CCCc1ccnc2ccccc12
## Output 30

## Input Query: LD50 at 72 h; subject: C=C[C@H]1C[N@@]2CC[C@H]1C[C@@H]2[C@@H](O)c1ccnc2ccc(OC)cc12 [Quinidine, reference compound]
## Output 70
